# test-system: D(2) dopamine receptor (Homo sapiens)
# Sequence (P14416 whole entry): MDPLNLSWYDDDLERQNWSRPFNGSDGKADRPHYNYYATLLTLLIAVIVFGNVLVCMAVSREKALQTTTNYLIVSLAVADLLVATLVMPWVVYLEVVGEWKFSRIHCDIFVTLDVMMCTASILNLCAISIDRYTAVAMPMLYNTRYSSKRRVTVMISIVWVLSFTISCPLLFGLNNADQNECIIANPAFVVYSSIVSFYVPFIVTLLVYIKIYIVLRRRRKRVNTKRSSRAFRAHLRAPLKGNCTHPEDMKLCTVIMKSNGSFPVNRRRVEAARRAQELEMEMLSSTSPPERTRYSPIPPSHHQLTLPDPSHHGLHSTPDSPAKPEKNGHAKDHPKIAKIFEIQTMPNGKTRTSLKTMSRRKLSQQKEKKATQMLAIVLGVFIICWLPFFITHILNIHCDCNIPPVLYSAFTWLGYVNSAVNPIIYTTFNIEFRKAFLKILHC
# method-summary: Antagonist activity at dopamine D2 receptor
value-kind: IC50 (nM)
Answers are plain numbers, in nM.

smi	test-system	units-label	IC50
CCN1CCC[C@H]1CNC(=O)c1c(C)c(C)cc(O)c1OC	D(2) dopamine receptor (Homo sapiens)	nM	7.76
CCc1ccc(OC)c(C(=O)NC[C@@H]2CCCN2CC)c1Br	D(2) dopamine receptor (Homo sapiens)	nM	11
CCN1CCC[C@H]1CNC(=O)c1c(OC)ccc(O)c1OC	D(2) dopamine receptor (Homo sapiens)	nM	8.71
CCN1CCC[C@H]1CNC(=O)c1c(C)c(Cl)cc(O)c1OC	D(2) dopamine receptor (Homo sapiens)	nM	11
CCN1CCC[C@H]1CNC(=O)c1c(OC)ccc(Br)c1Br	D(2) dopamine receptor (Homo sapiens)	nM	7.94
CCN1CCC[C@H]1CNC(=O)c1c(Cl)c(Br)cc(O)c1OC	D(2) dopamine receptor (Homo sapiens)	nM	17

Okay, here is my list. What is IC50 for each of these?
1. CCN1CCC[C@H]1CNC(=O)c1cc(Br)cc(O)c1OC
2. CCc1c(Cl)cc(O)c(OC)c1C(=O)NC[C@@H]1CCCN1CC
3. CCN1CCC[C@H]1CNC(=O)c1c(F)c(Br)cc(O)c1OC
4. CCN1CCC[C@H]1CNC(=O)c1c(C)c(Br)cc(O)c1OC
5. CCc1c(Br)cc(O)c(OC)c1C(=O)NC[C@@H]1CCCN1CC

-- reply
8.32
12
7.08
11
17

Give IC50 for each of the items listed below.
1. CCCc1cc(O)c(OC)c(C(=O)NC[C@@H]2CCCN2CC)c1C
2. CCN1CCC[C@H]1CNC(=O)c1c(Cl)c(OC)cc(O)c1OC
3. CCN1CCC[C@H]1CNC(=O)c1cc(F)cc(O)c1OC
4. CCc1cc(O)c(OC)c(C(=O)NC[C@@H]2CCCN2CC)c1CC

-- reply
[5.01, 70.8, 363, 1.78]
